assay: Drug level in fasted Zucker fa/fa rat brain assessed per gram of brain at 30 mg/kg, po after 3 hrs; format: ADME, organism-based; parameters: dose 30 mg/kg, route oral; settings: read-out: Drug uptake
PROPERTY MEASURED: concentration at 3 h (ng/g)
Please state the figure in ng/g; there is no need to write the unit.

Fill in the blank: the reported concentration at 3 h of `Cc1c(C(=O)NN2CCCCC2)nn(-c2ccc(Cl)cc2Cl)c1-c1ccc(Cl)s1` is ____. 640

====

The entries below are paired with their reported EC50.
target: Cannabinoid receptor 1 (Homo sapiens, UniProt P21554); assay: Antagonist activity at human cannabinoid CB1 receptor expressed in CHOK1 cells assessed as cAMP activity
Sequence (P21554 whole entry): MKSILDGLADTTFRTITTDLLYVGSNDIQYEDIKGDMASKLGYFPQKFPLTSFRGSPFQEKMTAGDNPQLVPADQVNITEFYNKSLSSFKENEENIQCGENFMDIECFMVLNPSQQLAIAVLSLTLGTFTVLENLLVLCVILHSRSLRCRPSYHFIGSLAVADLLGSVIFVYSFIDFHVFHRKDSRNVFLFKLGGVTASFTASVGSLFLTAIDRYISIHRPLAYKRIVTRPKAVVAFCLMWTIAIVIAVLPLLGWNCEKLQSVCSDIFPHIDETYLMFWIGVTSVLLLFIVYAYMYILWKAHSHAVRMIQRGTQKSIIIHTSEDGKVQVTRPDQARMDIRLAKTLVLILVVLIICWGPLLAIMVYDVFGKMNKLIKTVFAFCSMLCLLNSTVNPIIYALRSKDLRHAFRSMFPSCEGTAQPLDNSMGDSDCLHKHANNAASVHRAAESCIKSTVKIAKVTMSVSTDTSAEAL
Please state the figure in nM; there is no need to write the unit.

The examples below pair each entry with its known result.
MOLECULE: Cc1c(C(=O)NN2CCCC2)nn(-c2ccc(Cl)cc2Cl)c1-c1ccc(Cl)s1
STUDY TARGET: Cannabinoid receptor 1 (Homo sapiens, UniProt P21554)
RESULT: 1000
--
MOLECULE: Cc1c(C(=O)NN2CCCCC2)nn(-c2ccc(Cl)cc2Cl)c1-c1ccc(I)s1
STUDY TARGET: Cannabinoid receptor 1 (Homo sapiens, UniProt P21554)
RESULT: 320

Next up:
Fill in the blank: the reported EC50 of `Cc1c(C(=O)NN2CCCCC2)nn(-c2ccc(Cl)cc2Cl)c1-c1ccc(Br)s1` is ____. 400
